test target: T1, human CD19 on CHO-K1-human CD19 cells (human, UniProt P15391 20-556)
T1 construct: whole, on cells; also called CHO-K1-human CD19-2C8
T1 sequence (looked up): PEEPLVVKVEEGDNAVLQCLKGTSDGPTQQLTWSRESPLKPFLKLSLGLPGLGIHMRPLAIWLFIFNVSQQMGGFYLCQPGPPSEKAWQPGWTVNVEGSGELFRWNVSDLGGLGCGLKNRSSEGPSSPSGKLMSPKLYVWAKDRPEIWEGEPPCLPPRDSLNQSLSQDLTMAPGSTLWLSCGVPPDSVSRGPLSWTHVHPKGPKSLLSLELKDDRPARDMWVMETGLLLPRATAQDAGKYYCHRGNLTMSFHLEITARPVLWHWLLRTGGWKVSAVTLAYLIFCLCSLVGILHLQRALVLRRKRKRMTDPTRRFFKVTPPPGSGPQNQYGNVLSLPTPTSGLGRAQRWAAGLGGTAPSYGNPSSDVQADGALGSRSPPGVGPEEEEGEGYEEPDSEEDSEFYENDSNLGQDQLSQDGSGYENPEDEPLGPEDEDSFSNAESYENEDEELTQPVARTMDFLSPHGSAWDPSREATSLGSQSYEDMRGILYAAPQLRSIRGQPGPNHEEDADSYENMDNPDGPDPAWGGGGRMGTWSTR
experiment summary: FACS on CHO-K1-human CD19 cells
Description: The desired cells were scale-up cultured in a T-75 cell culture flask to the logarithmic growth phase. For the adherent cell CHO-K1, the medium was aspirated, the cells were washed 2 times with a PBS buffer, and then digested with trypsin. […] Data analysis was performed by software (FlowJo) to obtain the mean fluorescence intensity (MFI) of the cells. […]

binder	Maximum mean fluorescence intensity
F3.3.10 (antibody, human IgG1, V domains shown, human-murine chimeric antibody, human IgG1) VH: DVQLQESGPGLAKLSQSLSLTCSVTGYSITSGYYWNWIRQFPGNKLEWMGHISYDGNNNYNPSLKNRISITRDTSKNQFFLKLNSVTTEDTATYYCARENYSNYYFDYWGQGTTLTVSS VL: DIVLTQSPASLAVSLGQRATISCRASQSVSKSSYTYIHWYQQKPGQPPKLLIKYASILQSGVPARFSGSGSGTDFTLNFHPVEEEDTATYYCQHSWEIPYTFGGGTKLEIK	48300
F4.15.9 (antibody, human IgG1, V domains shown, human-murine chimeric antibody, human IgG1) VH: QVQLQQSGPELVKPGASVKISCKASGYAFSSSWMNWLKQRPGQGLEWIGRIYPGDGDTNYNGKFKGKATLTADESSSTAYMQLSSLTSVDSAVYFCARGITTIITIAWFASWGQGTLVTVSA VL: QIVLSQSPTILSASPGEKVTMTCRASSSVSYMHWYQQKPGSSPKPWIYATSNLASGVPPRFSGSGSGTSYSLTISRVGAEDAATYYCQQWSSDPWTFGGGTKLEIK	20500
F4.37.6 (antibody, human IgG1, V domains shown, human-murine chimeric antibody, human IgG1) VH: QVQLQQSGAELARPGASVKLSCKASGYTFTSFWMQWLKQRPGQGLEWIGTIYPGDGDTRYTQKFKGKATLTADKSSNTAYMQLSSLASEDSAVYYCARGALSNYGGFAYWGQGTLVTVSA VL: NIVLTQSPASLAVSLGQRATISCRASESVDSYGHSFMHWYQQKPGQPPKLLIYLASNLESGVPARFSGSGSRTDFTLTIDPVEADDAATYYCQQNNEDPWTFGGGTKLEIK	8490
F3.23.10 (antibody, human IgG1, V domains shown, human-murine chimeric antibody, human IgG1) VH: EFQLQQSGPELVKPGASVKISCKASDYSFTDYNMNWVKQSNGASLEWIGIINPNFGSTSYNQKFKGKATLTVDQSSSTAFMQLNSLTSEDSAVYYCARSEYYGSSGFAYWGQGTLVTVSA VL: DVVVTQTPLSLPVSFGDQVSISCRSSQSLVNSYGNTYLSWYLHKPGQSPQLLIYGISNRFSGVPDRFSGSGSGTDFTLKITTIKPEDLGMYYCLQGTHQPWTFGGGTKLEIK	50400
F5.2.9 (antibody, human IgG1, V domains shown, human-murine chimeric antibody, human IgG1) VH: QVTLKESGPGILQPSQTLSLTCSFSGFSLSTFGLGVGWVRQPSGKGLEWLAHIWWDDDKYYNPALKSRVTVSKETSKNQVFFKIANVDTADSATYYCARLSRGLRRDVVYAMDHWGQGTSVTVSS VL: DIQMTQTTSSLSASLGDRVTISCRASQDISNYLNWYQQKPDGSVKLLISYVSRLQSGVPSRFRGSGSGTDYSLTISNLDQEDIATYFCQQGIAFPYTFGGGTKLDIK	34000
F4.18.13 (antibody, human IgG1, V domains shown, human-murine chimeric antibody, human IgG1) VH: QVQLQQSGPELVKPGASVKISCKASGYAFSSFWMNWVKQRPGEGLEWIGRIYPGDGDTNYNGKFKGKATLTADDSSSTAYMQLSSLTSVDSAVYFCAREVIAAVVTTDFDYWGQGTTLTVSS VL: DIQMTQTTSSLSASLGDRVTISCRTSQDISNYLNWYLQKPDGTVKLLIYYTSGLHSGVPSRFSGSGSGTDYSLTISNLEPEDIATYFCQQGKTLPYTFGGGTKLEIK	51600
F4.82.11 (antibody, human IgG1, V domains shown, human-murine chimeric antibody, human IgG1) VH: QVTLKESGPGILQASQTLSLTCSFSGFSLSTFGIGVGWVRQPSGKGLEWLAHIWWNDNKFFNTTLKNRLTLSKDPSNNQVFLKIASVDTADTATYYCARSRSALITTGLYAMDYWGQGTSVTVSS VL: DIQMTQTPSSLSASLGDRVTISCRSSQDISNYVNWYQQKPDGTVKVLINYTSRLHSGVPSRFSGSGSGTDYSLTISNLEQEDIASYFCQQGFTLPYTFGGGTKLEIK	26000
F3.121.4 (antibody, human IgG1, V domains shown, human-murine chimeric antibody, human IgG1) VH: QVQLQQPGAELVVPGTSVKLSCKASGYTFTNYWMHWVKQRPGQGLEWIGEIDPSDNYANYNQEFQGKATLTVDKSSSTAYMQLSSLTSDDSAVYYCARHDGYFGALDYWGQGTSVTVSS VL: EIVLTQSPTTMAASPGEKITITCSASSSISSNYLHWYQQKPGFSPKFLIYRTSNLASGVPARFSGSGSGTSYSLTIGTMEAEDVATYYCQQASSIPRMFTFGSGTKLEIK	53700
F4.58.6 (antibody, human IgG1, V domains shown, human-murine chimeric antibody, human IgG1) VH: QVQLQQPGAELVKPGASVKLSCKASGYTFTSYWMHWVKQRPGQGLEWIGEIDPSDSYSNYNQKFKGKATLTVDKSSSTAYMQLSSLTSEDSAVYYCARSNYGSSYGYFDVWGAGTTVTVSS VL: QIVLTQSPAIMSASPGEKVTMTCSVSSSLSYMHWYQQKPGTSPKRWIYDTSKLASGVPARFSGSGSGTSYSLTISSMEAEDAATYYCHQRSSYPTFGGGTKLEIK	56700
F4.78.1 (antibody, human IgG1, V domains shown, human-murine chimeric antibody, human IgG1) VH: QVQIQQSGAELARPGASVKLSCKASGYTFTNYWMQWIKQRPGQGLEWIGAIYPGDGDTRYTQKFKGKATLTADKSSSTAYMQLSSLASEDSAVYYCAREEVWSPYGMDYWGQGTSVTVSS VL: QIVLTQSPAIMSASPGEKVTITCSASSSVSYMGWFQQKPGTSPKLWIYSTSNLASGVPARFSGSGSGTSYSLTISRMEAEDAATYYCQQRSIYPLTFGAGTKLELK	44300
